measured_attribute: melting point

>>> print(df.to_string())
                                   compound  measured_attribute         result
0  CCCCCCNc1nc(-c2ccccc2)c(-c2ccc(=O)n(C(C)C)n2)s1       melting point    90 to 92 °C
1      COc1cc(OC)c(C(=O)/C=C/C(=O)O)c(OC)c1       melting point  151 to 153 °C
2  CCc1ccc2c(n1)C(C(N)=S)CCC2 (stereo not drawn)       melting point    73 to 75 °C

---

measured_attribute: melting point

In [3]: df
Out[3]:
                                   molecule         result
0  CCCOc1ccccc1-c1nc2nc(N3CCOCC3)ncc2c(=O)[nH]1  176 to 177 °C
1  CC(=O)C1CCC2C3CCC4=CC(=O)C=CC4(C)C3C(O)CC12CO[N+](=O)[O-] (centres undefined)  162 to 164 °C
2  Cc1cccc(-c2nc(-c3ccc(S(C)(=O)=O)cc3)sc2-c2ccnc(S(=O)(=O)c3ccccc3)c2)c1  126 to 128 °C
3  Cc1ccc(S(=O)(=O)NC(=O)C(C)(NC=O)C(C)C)cc1 (centres undefined)  131 to 135 °C

Source of measurements: a melting point compilation (Tetko et al.; mined from patent text by program, amines drawn as free bases though some values may be those of a salt)
